So I've got a bunch of molecules here, and I need their IC50 values.
target: recombinant human ACC2 (Homo sapiens (Human))
Sequence (O00763 27-2458): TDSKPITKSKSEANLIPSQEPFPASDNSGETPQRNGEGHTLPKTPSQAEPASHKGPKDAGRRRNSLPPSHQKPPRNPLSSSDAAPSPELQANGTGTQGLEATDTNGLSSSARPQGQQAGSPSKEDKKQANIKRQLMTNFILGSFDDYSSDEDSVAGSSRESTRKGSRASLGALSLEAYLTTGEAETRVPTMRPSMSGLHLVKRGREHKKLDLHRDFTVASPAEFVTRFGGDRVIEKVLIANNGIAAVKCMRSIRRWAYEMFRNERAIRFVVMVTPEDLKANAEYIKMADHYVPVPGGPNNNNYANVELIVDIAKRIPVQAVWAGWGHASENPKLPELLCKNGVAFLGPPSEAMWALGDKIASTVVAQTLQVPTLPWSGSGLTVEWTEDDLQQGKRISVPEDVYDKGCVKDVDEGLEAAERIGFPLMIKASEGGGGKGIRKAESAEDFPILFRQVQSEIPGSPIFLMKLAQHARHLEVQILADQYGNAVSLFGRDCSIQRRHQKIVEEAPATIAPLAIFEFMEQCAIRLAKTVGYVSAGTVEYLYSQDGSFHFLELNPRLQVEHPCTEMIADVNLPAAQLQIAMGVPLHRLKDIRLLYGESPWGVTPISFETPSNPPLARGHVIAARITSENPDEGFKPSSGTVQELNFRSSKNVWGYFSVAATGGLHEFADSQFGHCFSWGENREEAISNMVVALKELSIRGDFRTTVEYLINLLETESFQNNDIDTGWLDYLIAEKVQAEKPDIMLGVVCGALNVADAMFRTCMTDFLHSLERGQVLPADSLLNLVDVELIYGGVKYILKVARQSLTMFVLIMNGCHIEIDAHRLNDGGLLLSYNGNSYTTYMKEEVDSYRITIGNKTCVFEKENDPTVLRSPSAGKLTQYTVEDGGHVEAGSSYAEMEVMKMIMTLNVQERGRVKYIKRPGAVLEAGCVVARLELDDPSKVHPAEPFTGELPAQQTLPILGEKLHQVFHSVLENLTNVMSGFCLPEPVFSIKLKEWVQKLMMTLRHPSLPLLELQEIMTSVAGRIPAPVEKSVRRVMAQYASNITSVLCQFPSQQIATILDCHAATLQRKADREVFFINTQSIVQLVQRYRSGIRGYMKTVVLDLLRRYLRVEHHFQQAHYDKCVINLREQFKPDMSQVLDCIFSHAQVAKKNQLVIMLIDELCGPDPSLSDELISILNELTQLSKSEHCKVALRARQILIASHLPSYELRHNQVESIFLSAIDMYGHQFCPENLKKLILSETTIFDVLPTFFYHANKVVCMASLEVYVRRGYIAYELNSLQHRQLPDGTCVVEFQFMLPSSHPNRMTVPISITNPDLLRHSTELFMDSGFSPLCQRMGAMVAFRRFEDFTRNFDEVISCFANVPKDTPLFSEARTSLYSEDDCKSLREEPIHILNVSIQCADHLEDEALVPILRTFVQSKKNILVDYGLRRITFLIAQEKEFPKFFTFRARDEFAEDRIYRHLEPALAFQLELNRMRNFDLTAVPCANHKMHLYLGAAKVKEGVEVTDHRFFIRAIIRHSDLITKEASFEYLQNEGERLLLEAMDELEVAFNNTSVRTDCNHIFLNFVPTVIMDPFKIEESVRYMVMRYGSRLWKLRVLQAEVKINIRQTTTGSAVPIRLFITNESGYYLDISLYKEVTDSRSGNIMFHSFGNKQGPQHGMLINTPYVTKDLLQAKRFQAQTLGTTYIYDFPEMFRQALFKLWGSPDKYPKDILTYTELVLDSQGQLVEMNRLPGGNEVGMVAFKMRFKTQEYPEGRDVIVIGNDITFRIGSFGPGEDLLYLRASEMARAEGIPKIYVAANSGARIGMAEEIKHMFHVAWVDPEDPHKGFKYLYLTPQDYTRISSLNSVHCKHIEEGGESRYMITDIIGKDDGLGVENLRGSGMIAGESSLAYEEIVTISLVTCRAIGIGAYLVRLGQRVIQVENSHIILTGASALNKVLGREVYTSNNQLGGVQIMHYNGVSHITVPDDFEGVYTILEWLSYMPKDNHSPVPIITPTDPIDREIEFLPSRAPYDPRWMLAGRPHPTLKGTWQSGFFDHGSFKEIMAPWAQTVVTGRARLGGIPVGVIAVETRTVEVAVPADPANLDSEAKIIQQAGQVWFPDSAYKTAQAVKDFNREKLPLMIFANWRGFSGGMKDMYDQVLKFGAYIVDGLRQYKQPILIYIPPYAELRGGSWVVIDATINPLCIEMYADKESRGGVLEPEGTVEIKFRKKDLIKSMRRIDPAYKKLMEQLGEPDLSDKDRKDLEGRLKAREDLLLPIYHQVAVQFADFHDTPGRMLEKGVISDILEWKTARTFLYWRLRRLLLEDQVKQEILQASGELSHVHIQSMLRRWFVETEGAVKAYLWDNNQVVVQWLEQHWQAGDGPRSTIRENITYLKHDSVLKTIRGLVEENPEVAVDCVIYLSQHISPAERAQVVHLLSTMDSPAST
assay info: Measurement of inhibitory activity on human ACC2 (MALDI-TOF MS, acetyl CoA to malonyl CoA conversion)
Assay type: biochemical
experimental conditions: Tables 155-159
Excerpt: Preparation 1: Preparation of Recombinant Human ACC2 After a cDNA encoding human ACC2 (27 amino acid residue to 2458 amino acid residues from the N-terminus) was cloned from human kidney cDNA library (Clontech), human ACC2 gene containing His-tag sequence at 5′ terminus was inserted into pFastBac1 (Invitrogen). Recombinant baculovirus was generated using Bac-to-Bac baculovirus expression system (Invitrogen) according to the manufacturer's protocol. […]
One number for each entry, in nM.

Hi team, please reply with IC50 for each item in this list.
1. CC(=O)N[C@@H](C)CO[C@H]1C[C@H](COc2nccc3c2OCCN3Cc2ccccc2)C1
2. CC(=O)N[C@@H](C)CO[C@H]1CC[C@H](Oc2ccc3nc(C4(F)COC4)sc3c2F)CC1
3. CC(=O)N[C@@H](C)CO[C@H]1C[C@H](COc2ccc3nc(OC(C)CF)sc3n2)C1 (stereo partly drawn)
4. CC(=O)N[C@@H](C)CO[C@H]1C[C@@H](COc2ncnc(OCc3ccccn3)c2Cl)C1
5. CC(=O)N[C@@H](C)CO[C@H]1CC[C@H](Oc2ncc3nc(OC(C)C)sc3c2F)CC1
6. C[C@@H](CO[C@H]1CC[C@H](Oc2nc3c(F)cc(OC4CC4)c(F)c3n2C)CC1)NC(N)=O
7. CC(=O)N[C@@H](C)CO[C@H]1CC[C@H](Oc2ncc3nc(OCC(F)F)sc3c2F)CC1
8. CC(=O)N[C@@H](C)CO[C@H]1CC[C@H](Oc2ccc3nc(OC4CCC(F)(F)CC4)n(C)c3n2)CC1

1: 176; 2: 23; 3: 12; 4: 4; 5: 7; 6: 4; 7: 8; 8: 22
